System: washed platelets
assay_procedure: Lactate dehydrogenase (LDH)-based cytotoxicity assay on washed platelets
assay_context: LDH release as percentage of total enzyme activity (0.3% Triton X-100 lysis); 100 μM compound, 10 min, 37°C, washed platelets

compound | Cytotoxic activity Mean (%) ± SD
O=C1C=C(O)C(=O)c2ccccc21 [Lawsone, 2-hydroxy-1,4-naphthoquinone] | 32.80
O=C1C(O)=C(Sc2ccccc2)C(=O)c2ccccc21 [Compound 1] | 22.35
COC(=O)c1ccccc1SC1=C(O)C(=O)c2ccccc2C1=O [Compound 5] | 31.12
O=C1C(O)=C(Sc2ccc(F)cc2)C(=O)c2ccccc21 [Compound 8] | 21.62
O=C1C(O)=C(Sc2cccc(F)c2)C(=O)c2ccccc21 [Compound 7] | 21.50
O=C1C(O)=C(Sc2ccccc2F)C(=O)c2ccccc21 [Compound 6] | 21.77

###

Test system: collagen-stimulated platelets
assay_procedure: Platelet aggregation induced by collagen (light transmission, lumi-aggregometer)
Type: cell-based, human
assay_context: Homo sapiens; platelet aggregation induced by collagen (1 μg/mL); washed platelets pre-incubated 5 min at 37°C; read-out: IC50 (μM) ± SD Collagen (1 μg/mL)

compound | endpoint_unit | IC50
O=C1C(O)=C(Sc2ccccc2)C(=O)c2ccccc21 [Compound 1] | µM | 14.6
O=C1C(O)=C(Sc2ccc(F)cc2)C(=O)c2ccccc21 [Compound 8] | µM | 12.1
O=C1C(O)=C(Sc2cccc(F)c2)C(=O)c2ccccc21 [Compound 7] | µM | 11.1
O=C1C(O)=C(Sc2ccccc2F)C(=O)c2ccccc21 [Compound 6] | µM | 10.6

###

Test system: washed platelets
assay_procedure: Lactate dehydrogenase (LDH)-based cytotoxicity assay on washed platelets
assay_context: 100 μM, 10 min at 37°C
outcome_measure: cytotoxicity on platelets by LDH leakage (in words)

compound | result_value
O=C1C=C(O)C(=O)c2ccccc21 [Lawsone, 2-hydroxy-1,4-naphthoquinone] | had a cytotoxic activity
COC(=O)c1ccccc1SC1=C(O)C(=O)c2ccccc2C1=O | had a cytotoxic activity
